# TARGET: Concanavalin-A (Canavalia ensiformis)
# METHOD NOTES: ConA small-molecule binders, primary screen, artefact control for SMM control protein annotation, biochemical, small-molecule microarray, Alexa647 label, 635 nm (AID 1127);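 further: z combines 667 nm emission intensity with signal-to-noise across three replicate slides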
# CONDITION INFO: ConA-A647 binding fluorescence, higher = more signal
Quick reference: composite z-score of the listed items.
READOUT TYPE: composite z-score

> print(dat)
                                    molecule  measured.result
 1  CCOC(=O)[C@H](Cc1ccccc1)NC(=O)CCC1CC(OC(=O)NCCc2ccc(F)cc2)CC2(CCCC(COC(=O)NCC3CCCCC3)O2)O1 (some centres undefined)             1.07
 2  COC(=O)CC=C[C@H](C)[C@@H](OCc1cccc(Br)c1)[C@@H](C)[C@H](OC)C1CCCCC1            -1.23
 3      CC=CC1=C(CO)C(=O)[C@@H]2O[C@@H]2C1=O           -0.579
 4  COC(=O)CC=C[C@@H](C)[C@@H](C=NO[C@@H](C)c1cn([C@H](CO)Cc2ccccc2)nn1)NS(=O)(=O)c1ccc(C)cc1           -0.419
 5  COC(=O)CC=C[C@@H](C)[C@@H](C=NOCC[C@@H]1C=C[C@H](OC(C)=O)[C@@H](COC(C)=O)O1)NS(=O)(=O)c1ccc(C)cc1            -2.79
 6  CCC1=NOC(CCC2CC(OC(=O)NCc3cccc4c3OCO4)CC3(CCCC(COC(=O)NCCc4ccccc4OC)O3)O2)C1 (centres undefined)            0.722
 7  O=C(NN=C1C[C@@H](O)[C@@H](O)[C@@H]2[C@@H]3C(=O)N(C4CCCCC4)C(=O)[C@@H]3CC[C@H]12)OCc1ccccc1           -0.465
 8  CC(=O)OC[C@H]1O[C@@H](ON=C(C)CCN2CCCc3nc(C)c(C)cc32)[C@H](OC(C)=O)[C@@H](OC(C)=O)[C@@H]1OC(C)=O             1.03
 9  C#CCCCON=C1C[C@@H](O)[C@@H](O)[C@@H]2[C@@H]3C(=O)N(C(C)(C)C)C(=O)[C@@H]3CC[C@@H]12           -0.616
10  CC(C)=NOC[C@@H](C)[C@H](OCc1ccccc1)C(C)C          -0.0651
11  CCOC(=O)[C@H](CC(C)C)NC(=O)CCC1CC(OC(=O)NCCc2ccc(F)cc2)CC2(CCCC(COC(=O)NCCC(C)C)O2)O1 (some centres undefined)            0.816
12  COC(=O)[C@H](C)NC(=O)CCC1CC(OC(=O)NCc2ccc3c(c2)OCO3)CC2(CCCC(COC(=O)NCc3cccc(C(F)(F)F)c3)O2)O1 (some centres undefined)            0.746
13  O=C1[C@H]2[C@H]3[C@H](O)[C@H](O)CC(=NO[C@@H]4O[C@H](CO)[C@@H](O)[C@H](O)[C@H]4O)[C@H]3CC[C@H]2C(=O)N1c1cccc(Oc2ccccc2)c1            0.264
14  O=C1C[C@@H](O)[C@@H](O)[C@@H]2[C@@H]3C(=O)N(C[C@@H]4CCCO4)C(=O)[C@@H]3CC[C@H]12            0.186
15  CO[C@H]1COC(=O)[C@@H](C)COC(=O)[C@@H](OCc2ccccc2)C=C[C@@H]1C           -0.459
16  CCOC(=O)[C@H](CC(C)C)NC(=O)CCC1CC(OC(=O)NCCc2ccc(F)cc2)CC2(CCCC(COC(=O)NCCc3ccccc3OC)O2)O1 (some centres undefined)             1.09
17  CCC=CCCC(OC(=O)c1ccc(Br)cc1)C1=CCCCC1=O (centres undefined)           -0.297
18  COc1ccc(O[C@H]2C=C[C@@H](c3ccccc3)O[C@@H]2CON=C2[C@H]3CCn4c(=O)n(-c5ccccc5)c(=O)n4[C@H]3[C@H](O)[C@@H]3O[C@H]23)cc1            0.817
19  Cc1ccc(S(=O)(=O)N[C@H]2COC(=O)CC=C[C@H](C)[C@@H](NS(=O)(=O)c3ccc(C)cc3)COC(=O)CC=C[C@@H]2C)cc1            0.128
20  COC(=O)[C@H]1O[C@@H](c2c(OC)c(OC)c(C)c(OC)c2OC)[C@H](C)[C@@H](O)[C@H]1C             0.86
21  CCCNC(=O)OC[C@H]1O[C@H](CCON=Cc2ccc(C(=O)N3[C@H](c4ccc(C)cc4)[C@@H](C)CC[C@H]3C(=O)OC)cc2)C=C[C@@H]1Oc1ccc(OC)cc1            0.279
22  Cc1ccc(S(=O)(=O)N[C@@H]2COC(=O)[C@@H](C)COC(=O)CC=C[C@H]2C)cc1            0.457
23  C=COC[C@@H]1CN2[C@@H](CC[C@@H](C)[C@@H]2c2ccc(Br)cc2)C(=O)O1           -0.563
24  C#CCCCON=C1C[C@@H](O)[C@@H](O)[C@@H]2[C@@H]3C(=O)N(c4ccc(F)cc4F)C(=O)[C@@H]3CC[C@H]12            0.772
25  CO[C@@H]1COC(=O)[C@H](CCSC)NC(=O)CC=C[C@@H](C)COC(=O)[C@H](C)NC(=O)CC=C[C@H]1C            -0.19
26  COC(=O)[C@H](C)NC(=O)CCC1CC(OC(=O)NCc2ccc3c(c2)OCO3)CC2(CCCC(COC(=O)NCC(c3ccccc3)c3ccccc3)O2)O1 (some centres undefined)             1.12
27  CON=Cc1ccc(C(=O)N2[C@H](c3ccc(C)cc3)[C@@H](C)CC[C@H]2C(=O)OC)cc1            0.669
28  CC(CCN1CCc2nc(-c3ccccc3)c(-c3ccccc3)cc2C1)=NOC[C@@H](O)COCc1ccco1            0.501
29  C[C@@H]1NC(=O)[C@@H](C)COC(=O)[C@H](C)NC(=O)[C@@H](C)COC1=O            0.513
